Molecular target: EP4 (Homo sapiens (Human), UniProt P35408)
Sequence (P35408 whole entry): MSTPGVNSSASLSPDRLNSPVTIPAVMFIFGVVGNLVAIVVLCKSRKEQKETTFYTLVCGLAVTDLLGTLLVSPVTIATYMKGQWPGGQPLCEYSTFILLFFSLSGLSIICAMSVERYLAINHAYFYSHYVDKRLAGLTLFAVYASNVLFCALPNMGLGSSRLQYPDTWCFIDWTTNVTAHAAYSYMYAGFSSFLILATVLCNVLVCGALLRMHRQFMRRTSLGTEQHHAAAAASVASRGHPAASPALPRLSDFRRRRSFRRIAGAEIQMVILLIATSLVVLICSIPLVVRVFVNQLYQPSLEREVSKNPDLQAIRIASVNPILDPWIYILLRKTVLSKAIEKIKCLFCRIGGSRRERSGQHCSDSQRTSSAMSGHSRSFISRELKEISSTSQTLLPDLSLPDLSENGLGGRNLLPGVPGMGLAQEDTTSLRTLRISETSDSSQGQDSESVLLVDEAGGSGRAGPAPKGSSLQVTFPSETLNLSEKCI
Test: hEP4 cAMP assay (BT549 breast cancer cells, HTRF cAMP)
Format: cell-based
Conditions: antagonistic activity; mean values where measured multiple times
pIC50: −log10 of the molar value.
Cut-off 7 on pIC50, inclusive. At or above means Criterion met; below means Criterion not met.

COMPOUND | DISCRETE_LABEL
CNc1nnc(-c2ccc(-c3cc(NCCn4c(C)cc5c(OC)cc(F)cc54)ncn3)cc2)s1 [compound 645] | Criterion met
Cc1cc(F)cc2c1cc(C)n2CCNc1cc(-c2ccc(C(=O)O)c(OCC(C)C)c2)ncn1 [compound 526] | Criterion not met
COc1cc(F)c(F)c2c1cc(C)n2CCNc1cc(-c2ccc(C(=O)O)c(NCC(F)(F)F)c2)ncn1 [compound 644] | Criterion met
CCOc1cc(-c2cc(NCCn3c(C)cc4c(C)c(F)c(F)cc43)ncn2)ccc1C(=O)O [Example 787] | Criterion not met

---

Target: PTGER2 (EP2) (Homo sapiens (Human), UniProt P43116)
Sequence (P43116 whole entry): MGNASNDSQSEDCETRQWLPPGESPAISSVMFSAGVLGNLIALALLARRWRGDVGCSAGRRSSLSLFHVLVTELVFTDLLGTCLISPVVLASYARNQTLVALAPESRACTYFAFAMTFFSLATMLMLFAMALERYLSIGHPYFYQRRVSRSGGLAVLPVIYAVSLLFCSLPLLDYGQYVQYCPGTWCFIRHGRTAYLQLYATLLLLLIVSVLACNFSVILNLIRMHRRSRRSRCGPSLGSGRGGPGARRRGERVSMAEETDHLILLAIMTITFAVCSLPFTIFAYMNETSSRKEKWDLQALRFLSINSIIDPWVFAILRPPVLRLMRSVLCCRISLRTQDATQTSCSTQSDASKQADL
Test: hEP2 b-arrestin assay (PathHunter HEK 293 PTGER2 b-arrestin cells)
Type: cell-based
Details: hEP2 b-arrestin assay (values without asterisk)
Description: The assay is using the PathHunter™ HEK 293 PTGER2 and PTGER4 b-arrestin cell lines from DiscoverX. The system is based on the Enzyme Fragment Complementation Technology. […] Twelve μl of reagent are transferred to the assay plate and incubate for 1 hour at room temperature in the dark. Luminescence counts are read on a BMG Fluostar Optima reader according to manufacturer's instructions. […] (each concentration is measured in duplicate)

COMPOUND | IC50 (nM)
COc1ccc(F)c2c1cc(C#N)n2CCNc1cc(-c2ccnc(C3CC3)c2)ncn1 [Example 986] | 9
CCCC(=O)OCOC(=O)c1sc(-c2cc(NCCn3c(C#N)cc4c(OC)ccc(F)c43)ncn2)cc1OCC [Example 1045] | 16
COc1cc(C(=O)O)cc(-c2cc(NCCn3c(C#N)cc4c(OC)ccc(F)c43)ncn2)c1 [Example 1005] | 18
CCOc1cc(-c2cc(NCCn3c(C#N)cc4c(OC)ccc(F)c43)ncn2)sc1C(=O)NS(=O)(=O)c1ccccc1 [Example 814] | 7
CCOc1cc(-c2cc(NCCn3c(C#N)cc4c(C)cc(F)c(F)c43)ncn2)sc1C(=O)O [Example 942] | 3
CCOc1cc(-c2cc(NCCn3c(C#N)cc4c(OC)cc(F)c(F)c43)ncn2)sc1C(=O)O [Example 943] | 4
COc1ccc(F)c2c1cc(C#N)n2CCNc1cc(-c2ccc3c(c2)CCNC3=O)ncn1 [Example 990] | 3
CCOc1cc(-c2cc(NCCn3c(C#N)cc4c(OC)cccc43)ncn2)ccc1OCC(=O)O [Example 870] | 8
CCc1cc(-c2cc(NCCn3c(C#N)cc4c(OC)ccc(F)c43)ncn2)ccc1C(=O)O [Example 948] | 50
CCOC(=O)C#Cc1ccc(-c2cc(NCCn3c(C#N)cc4c(OC)ccc(F)c43)ncn2)cc1OC [Example 1050] | 34
COc1ccc(F)c2c1cc(C#N)n2CCNc1cc(-c2ccnc(N3CCCC3)c2)ncn1 [Example 997] | 58
CCOc1cc(-c2cc(NCCn3c(C#N)cc4c(OC)ccc(F)c43)ncn2)sc1C(=O)N(C)C [Example 1025] | 33
CCOc1cc(-c2cc(NCCn3c(C#N)cc4c(OC)ccc(F)c43)ncn2)sc1C(=O)OCCN(C)C [Example 1048] | 10
CCOc1cc(-c2cc(NCCn3c(C)cc4c(C)cc(F)cc43)ncn2)ccc1-c1noc(=O)[nH]1 [Example 835] | 19
COc1ccc(F)c2c1cc(C#N)n2CCNc1cc(-c2ccc(C(F)(F)C(=O)O)cc2)ncn1 [Example 887] | 89
COc1ccc(F)c2c1c(F)c(C)n2CCNc1cc(-c2cc(C(F)(F)F)c(C(=O)O)s2)ncn1 [Example 1058] | 51
COC(=O)N(C)c1ccc(-c2cc(NCCn3c(C#N)cc4c(OC)ccc(F)c43)ncn2)cc1 [Example 1056] | 120
CCCOc1cc(-c2cc(NCCn3c(C#N)cc4c(OC)ccc(F)c43)ncn2)ccc1C(=O)O [Example 950] | 18
CCOc1cc(-c2cc(NCCn3c(C#N)cc4cccc(F)c43)ncn2)sc1C(=O)O [Example 892] | 1
COc1ccc(F)c2c1cc(C#N)n2CCNc1cc(-c2ccc3c(=O)[nH][nH]c(=O)c3c2)ncn1 [Example 1064] | 25
COc1ccc(F)c2c1cc(C#N)n2CCNc1cc(-c2ccnc(N)c2)ncn1 [Example 988] | 51
COc1ccc(F)c2c1cc(C#N)n2CCNc1cc(-c2cccc(CCC(=O)O)c2)ncn1 [Example 1011] | 120
CCCCOc1cc(-c2cc(NCCn3c(C#N)cc4c(OC)ccc(F)c43)ncn2)cc(F)c1C(=O)O [Example 905] | 22
CCCCOc1cc(-c2cc(NCCn3c(C#N)cc4c(OC)ccc(F)c43)ncn2)cc(Cl)c1C(=O)O [Example 906] | 30
COc1ccc(F)c2c1cc(C#N)n2CCNc1cc(-c2ccc3c(=O)[nH]n(C)c3c2)ncn1 [Example 921] | 6
COc1ccc(F)c2c1cc(C#N)n2CCNc1cc(-c2ccc(C(N)=O)s2)ncn1 [Example 900] | 26
COc1ccc(F)c2c1cc(C#N)n2CCNc1cc(-c2ccc(C(=O)O)c(SC(C)C)c2)ncn1 [Example 937] | 21
CCOc1cc(-c2cc(NCCn3c(C#N)cc4c(OC)ccc(F)c43)ncn2)sc1C(=O)NCCO [Example 1026] | 21
COc1ccc(F)c2c1cc(C#N)n2CCNc1cc(-c2ccc(CCC(=O)O)cc2)ncn1 [Example 1019] | 485
COc1ccc(F)c2c1cc(C#N)n2CCNc1cc(-c2cc3ccc(C(=O)O)cc3[nH]2)ncn1 [Example 1076] | 6
COc1ccc(F)c2c1cc(C#N)n2CCNc1cc(-c2ccc(-c3noc(=O)[nH]3)cc2)ncn1 [Example 825] | 14
